These entries and their values trace back to PubChem BioAssay (NCI).

test system: CAKI-1 renal; experiment: NCI tumour cell line growth inhibition, 48 h
Task for the reader: assign each of the following compounds its reported TGI.

Reported TGI, compound O=S(=O)(c1ccccc1)C1CC(c2nc3ccccc3[nH]2)=NO1 (centres undefined) : ____
> 100 µM

What does the record list as TGI for Nc1nc(Cl)c(N)c(NCC2(CO)CCC(OCc3ccccc3)C2)n1 (centres undefined) ?
> 100 µM

Look up TGI for this compound: `COc1cc2c(/C=C3\C(=O)N(C)c4ccccc43)c[nH]c2cc1C`
51.3 µM

Look at this compound and give its reported TGI. `Cc1n[nH]c(=O)n1C1CC1`
> 100 µM

Which TGI is listed for COc1ccc(C2(CC(C)C)CCNC2)cc1OC (centres undefined) ?
> 100 µM

Any idea what its TGI is? The compound is `O=C1CCCc2ccc([N+](=O)[O-])c(O)c21`
> 100 µM

Which TGI reading was recorded for the compound `CC(=O)N1c2ccccc2N(C(C)=O)C1c1ccc(C2N(C(C)=O)c3ccccc3N2C(C)=O)[nH]1` ?
> 100 µM

Look at this compound and give its reported TGI. CC[C@]12CN3CCc4c([nH]c5ccccc45)[C@@](C(=O)OC)(c4cc5c(cc4OC)N(C)[C@H]4[C@@](O)(C(=O)OC)[C@H](OC(C)=O)[C@]6(CC)C=CCN7CC[C@]54[C@@H]76)CC(C3)[C@H]1O2 (some centres undefined)
> 100 µM

Which measured TGI value corresponds to OCC1OC(N2C=C(c3nc4ccccc4s3)C3C=CC=CC32)C(O)C(O)C1O (centres undefined) ?
> 50 µM

###

tested on: RPMI-8226 leukemia; assay: NCI tumour cell line growth inhibition, 48 h
Please respond with reported TGI for every item in the list.

Which TGI value is on record for `Cc1nc2ccc(Cl)cc2c2c1CCN2c1ccc(F)cc1` ?
65.1 µM

If you can, please state the reported TGI value of CC(NNC(=O)c1ccncc1)c1ccccc1 (stereo unspecified) .
> 100 µM

Reported TGI for `C[n+]1c2ccccc2c(N=[N+]=[N-])c2ccccc21` : what is it?
> 10 µM

Any idea what its TGI is? The compound is Fc1cc2nc3n(c2cc1F)C(c1c(F)cccc1F)SC3 (stereo unspecified)
> 100 µM

Would you kindly share the measured TGI for CC(C(=O)NCNC(=O)c1ccccc1)C(=O)Nc1ccccc1 (stereo unspecified) ?
> 100 µM

Reported TGI, compound Cc1ccc(NC(=O)C2C3C=CC(O3)C2C(=O)O)cc1 (stereo unspecified) : ____
54.7 µM

Given the entry `O=C(C[C@@H]1CCCN2CCCC[C@H]12)N1c2ccccc2Sc2ccc(Cl)cc21` , report its measured TGI.
54.8 µM

Endpoint output: TGI of `OCc1ccc(-c2nc(-c3ccc4c(c3)OCO4)c(-c3ccccn3)[nH]2)cc1` . Value?
> 25 µM

Find the recorded TGI belonging to `Cc1c(-c2ccccc2)c(C#N)c2nnn(-c3ccc(Cl)cc3)c(=O)n12` and report it.
> 100 µM

Param item = `Cc1[nH]c2ccccc2c1CO` ; retrieve measured TGI.
> 100 µM

Which value of TGI has been reported for COC(=O)/C=C1\CCC2[C@@H](C(=O)CC3[C@]2(C)CCC[C@@]3(C)C(=O)OC)C1C (stereo partly specified) in the records?
19.9 µM
